# Study target: F508delCFTR (Homo sapiens, UniProt P13569, DEL508-508)
# Construct: expressed in transfected cells; host or cells: CFBE41o- human lung derived epithelial cells (CFBE41o-F508delCFTR-HRP), doxycycline-inducible
# Sequence (P13569 with tags, fused parts or gaps DEL508-508): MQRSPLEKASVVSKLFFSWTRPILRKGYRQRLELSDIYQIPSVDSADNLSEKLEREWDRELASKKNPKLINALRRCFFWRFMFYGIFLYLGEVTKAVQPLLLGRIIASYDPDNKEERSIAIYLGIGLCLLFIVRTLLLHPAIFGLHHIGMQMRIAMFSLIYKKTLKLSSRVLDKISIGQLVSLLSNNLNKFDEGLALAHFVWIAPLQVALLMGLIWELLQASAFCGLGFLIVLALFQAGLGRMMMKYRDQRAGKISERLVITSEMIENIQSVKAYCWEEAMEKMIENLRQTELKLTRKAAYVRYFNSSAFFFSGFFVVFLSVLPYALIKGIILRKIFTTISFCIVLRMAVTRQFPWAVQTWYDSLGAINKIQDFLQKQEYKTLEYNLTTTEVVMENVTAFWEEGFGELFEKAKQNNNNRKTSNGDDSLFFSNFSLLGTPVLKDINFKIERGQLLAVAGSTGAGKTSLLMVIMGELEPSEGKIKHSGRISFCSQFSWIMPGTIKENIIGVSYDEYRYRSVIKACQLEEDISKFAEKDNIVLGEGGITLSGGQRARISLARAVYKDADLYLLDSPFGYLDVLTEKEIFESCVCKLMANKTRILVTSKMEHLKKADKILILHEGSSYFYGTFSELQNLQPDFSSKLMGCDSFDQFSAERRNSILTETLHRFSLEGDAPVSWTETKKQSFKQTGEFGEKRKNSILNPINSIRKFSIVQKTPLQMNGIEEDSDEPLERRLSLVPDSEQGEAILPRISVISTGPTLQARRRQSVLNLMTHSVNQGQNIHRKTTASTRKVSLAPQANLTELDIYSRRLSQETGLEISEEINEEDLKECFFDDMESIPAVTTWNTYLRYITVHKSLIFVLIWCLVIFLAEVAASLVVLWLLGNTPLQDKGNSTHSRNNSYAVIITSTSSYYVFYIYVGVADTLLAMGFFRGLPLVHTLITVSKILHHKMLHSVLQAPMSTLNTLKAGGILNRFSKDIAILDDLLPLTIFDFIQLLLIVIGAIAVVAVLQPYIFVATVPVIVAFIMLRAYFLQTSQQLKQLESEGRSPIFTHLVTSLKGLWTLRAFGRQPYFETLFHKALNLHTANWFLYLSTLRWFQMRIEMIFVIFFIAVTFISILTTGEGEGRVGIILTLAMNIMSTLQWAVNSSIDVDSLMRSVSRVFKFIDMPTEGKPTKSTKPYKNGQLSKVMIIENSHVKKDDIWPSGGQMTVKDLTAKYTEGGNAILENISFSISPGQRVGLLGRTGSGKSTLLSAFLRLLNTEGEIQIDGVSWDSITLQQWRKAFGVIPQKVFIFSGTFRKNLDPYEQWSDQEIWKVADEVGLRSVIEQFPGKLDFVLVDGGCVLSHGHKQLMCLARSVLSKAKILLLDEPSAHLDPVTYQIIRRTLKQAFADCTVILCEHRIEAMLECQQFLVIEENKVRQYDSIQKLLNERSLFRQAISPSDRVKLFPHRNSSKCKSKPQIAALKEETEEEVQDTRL
# Experiment: Cell Surface Expression-Horse Radish Peroxidase (CSE-HRP) Assay
# Assay type: cell-based
# Condition parameters: with co-corrector; maximum at any tested concentration
Observed property: Maximum % activity (with co-corrector)

Molecule: COc1ncc(C2CCC2)cc1C1(C(=O)NS(=O)(=O)c2cccc3cnn(C)c23)CC1
Maximum % activity (with co-corrector): +++ (≥350)
--
Molecule: O=C(NS(=O)(=O)c1cccc2c1CCCN2)C1(c2cc(OC(F)(F)F)ccc2Cl)CC1
Maximum % activity (with co-corrector): +++ (≥350)
--
Molecule: COc1ncc(C(F)(F)F)cc1C1(C(=O)NS(=O)(=O)c2cccc3ccn(C)c23)CC1
Maximum % activity (with co-corrector): +++ (≥350)
--
Molecule: CC(C)Oc1ncc(Br)cc1C1(C(=O)NS(=O)(=O)c2cccc3ncccc23)CC1
Maximum % activity (with co-corrector): +++ (≥350)

Query :: Which Maximum % activity (with co-corrector) value belongs to COc1cccc(C2(C(=O)NS(=O)(=O)c3ccccc3C)CCOCC2)c1 ?
Result :: + (<150)

Query :: Now consider COc1ncc(C2CCC2)cc1C1(C(=O)NS(=O)(=O)c2cccc3nc(C)ccc23)CC1 .
Result :: +++ (≥350)

Query :: Same lookup for O=C(NS(=O)(=O)c1cccc2ncccc12)C1(c2ccccc2OC(F)(F)F)CCC1 , please.
Result :: +++ (≥350)

Query :: Can you handle O=C(NS(=O)(=O)C1CCS(=O)(=O)C1)C1(c2ccc(Cl)cc2Cl)CC1 (centres unmarked) next?
Result :: + (<150)

====

# Study target: F508delCFTR (Homo sapiens, UniProt P13569, DEL508-508)
# Construct: expressed in transfected cells; host or cells: CFBE41o- human lung derived epithelial cells (CFBE41o-F508delCFTR-HRP), doxycycline-inducible
# Experiment: Cell Surface Expression-Horse Radish Peroxidase (CSE-HRP) Assay
# Assay type: cell-based
# Condition parameters: test compound alone, without co-corrector; read-out: EC50 (without co-corrector)
Exercise: for every item that follows, state its recorded EC50.

Query :: Would you mind telling me what EC50 value was observed for CCOc1ccc(C(C)(C)OC)cc1C1(C(=O)NS(=O)(=O)c2cccc3ncccc23)CC1 [II-97] ?
Result :: < 3 µM

Query :: Then O=C(NS(=O)(=O)Cc1ccccc1)C1(c2ccc(Cl)c(Cl)c2)CC1 [Example III-115] ?
Result :: > 10 µM

Query :: Now consider COc1ccc(C2CCC2)c(C2(C(=O)NS(=O)(=O)c3cccc4ncccc34)CC2)c1 [II-46] .
Result :: < 3 µM

Query :: How about COc1cccc(C)c1C1(C(=O)NS(=O)(=O)c2cccc3nc(C)ccc23)CC1 [II-50] ?
Result :: 3 to 10 µM

Query :: Ok, now O=C(NS(=O)(=O)c1cccc2ncccc12)C1(c2ccc(C(F)(F)F)nc2C2CC2)CC1 [Example GI-5]
Result :: 3 to 10 µM

Query :: Proceed to COc1cccc(C)c1C1(C(=O)NS(=O)(=O)c2cccc3c2CCCN3)CC1 [II-53]
Result :: 3 to 10 µM

Query :: Another molecule: COc1ccc(C2CCC2)cc1C1(C(=O)NS(=O)(=O)c2cccc3cnn(C)c23)CCC1 [Example I-25]
Result :: < 3 µM

Query :: # repeat for O=C(NS(=O)(=O)Cc1ccccc1)C1(c2ccc(Cl)cc2)CC1 [Example III-114]
Result :: > 10 µM
